In this section we review reported growth values for a set of compounds.
- System: SF-295 CNS
- experimental_details: NCI-60 one-dose screen, 48 h (100 = growth as untreated, 0 = no growth, -100 = all killed)
- measurement_context: 10 µM unless noted
About 83,000 compounds went through this panel and 20% of them were active in at least one assay; those are over-represented in the sample as a whole.
Number only, in %; omit the unit.

> print(dat)
                                   compound  recorded.measurement
1  C=CC[N+]1(CCO)CCN=C1CCCCCCCCCCCCC (stereo not given)                  47.5

Param readout= growth; system= SF-295 CNS; entry= "CC(C)(C)n1cc(-c2ccnc(NCCCNS(=O)(=O)c3cccc4ccccc34)c2)c(-c2cccc(O)c2)n1" ; returns value. 8.6

Query "CCN1CCN(Cc2ccc(NC(=O)Nc3nc4ccc(Oc5ccnc(C(=O)NC)c5)cc4s3)cc2C(F)(F)F)CC1" next -23.9

Query "CCOC(=O)c1c2ncccc2n2c(=O)n(-c3ccc(Cl)cc3)nnc12" next 9.85

Query "O=[N+]([O-])c1cccc(-c2nc3sccn3c2-c2ccnc(NCCCNS(=O)(=O)c3ccc(Br)cc3)n2)c1" next 48.2

====

- System: SF-268 CNS
- experimental_details: NCI-60 one-dose screen, 48 h
- measurement_context: 10 µM unless noted
- Protocol: Cells are grown in 96 well plates and exposed to the test compound for 48 hours. Compounds are tested at a single concentration, which is 10^-5 M for most compounds. The reported endpoint is percent growth (GI% or GIPRCNT), where numbers from 0 - 100% represent growth inhibition, and numbers from -100% - 0 represent cell death. For example, a value of 40 represents 60% growth inhibition. A value of 0 means no net growth occurred over the course of the experiment. […]
About 83,000 compounds went through this panel and 20% of them were active in at least one assay; those are over-represented in the sample as a whole. The source made the active and inactive calls. How the source made its calls: active means growth percent below 10; inactive means the rest.
Lab note: assign the record to one of active, inactive

> print(dat)
                              smiles.string  tested.system  assigned.label
1  CCOC(=O)c1c2ncccc2n2c(=O)n(-c3ccc(Cl)cc3)nnc12     SF-268 CNS        inactive
2  O=C1C[C@H](N2C(=O)c3ccccc3S2(=O)=O)C2CO[C@@H]1O2     SF-268 CNS        inactive
3  O=C(COCc1c(-c2ccccc2)no[n+]1[O-])Nc1ccc(C(=O)/C=C/c2ccc3c(c2)OCO3)cc1     SF-268 CNS        inactive
4  N#Cc1ccc(NC(=O)Nc2ccc(Cc3ccc(NC(=O)Nc4ccc(C#N)cc4)cc3)cc2)cc1     SF-268 CNS        inactive
5  O=c1c2cccc3c(Nc4ccccn4)ccc(c32)c2nc3ccccc3n12     SF-268 CNS        inactive
6    CC(=O)/C(=C/c1cccc(Cl)c1)C(=O)c1ccccc1     SF-268 CNS        inactive
7  COc1cc(-c2c3sc(=O)[nH]c3nc3c2c(=O)[nH]n3C(C)C)cc2c1OCO2     SF-268 CNS        inactive
8    CC(=O)Oc1ccc(Nc2c3ccccc3nc3ccccc23)cc1     SF-268 CNS        inactive
9  CN1CCN(Cc2ccc(NC(=O)c3[nH]ncc3Nc3ncnc4c3CCC4)cc2)CC1     SF-268 CNS          active

Outcome? "O=S(=O)(Nc1ccc(Cl)cc1Cl)c1ccc(-c2cnc(C3CC3)o2)cc1" inactive

====

- System: SF-268 CNS
- experimental_details: NCI-60 one-dose screen, 48 h
- measurement_context: 10 µM unless noted
The panel holds about 83,000 compounds, 20% with a hit somewhere; the sample as a whole holds those more often. Activity calls are given as the source filed them. The calls were made as follows: active = growth percent below 10; inactive = the rest.
Lab note: assign the record to one of true (active), false (inactive)

> print(dat)
                             molecule  assigned.label
1  COc1ccc(-c2cn3c(ccc4ccccc43)n2)cc1           false

Outcome? "Nc1cc2ccncc2c2ccccc12" false

Query "Nc1cccc(-c2nc3sccn3c2-c2ccnc(NCCCNS(=O)(=O)c3ccc(C(F)(F)F)cc3)n2)c1" next false

Query "COc1ccc(Cl)cc1Nc1nc(C(F)(F)F)ccc1C(=O)N/N=C/c1cccnc1" next false

Query "Cc1ccc(SCN2CCN(c3cccc(Cl)c3)CC2)cc1" next false

Query C=C1CCC2C3(C)COC(c4ccc(OC)cc4Br)OC3CCC2(C)C1/C=C/C1=CCOC1=O (stereo not given) next false

====

- Test system: DU-145 prostate
- experimental_details: NCI-60 one-dose screen, 48 h (100 = growth as untreated, 0 = no growth, -100 = all killed)
- measurement_context: 10 µM unless noted
About 83,000 compounds went through this panel and 20% of them were active in at least one assay; those are over-represented in the sample as a whole.
In this section we review reported growth values for a set of compounds.
Number only, in %; omit the unit.

Example results:
> print(dat)
                                   compound  measure.unit  recorded.measurement
1  O=C(Nc1ccc(CN2CCOCC2)cc1)c1[nH]ncc1Nc1ncnc2sccc12             %                  5.47
2  COc1ccc2c(c1)C(=O)/C(=C/c1cccc(OCC(=O)Nc3nc4c(s3)CCCC4)c1)O2             %                  32.9
3                       CC#CC#Cc1cccc(=O)o1             %                   100

Param readout= growth; system= DU-145 prostate; entry= "O=c1c2c3c(sc2n2c(CCl)nnc2n1Cc1ccccc1)CCCC3" ; returns value. -11.9

Query "Cn1c2c(Cl)c(Cl)ccc2c2ccn3c(=O)c4ccccc4nc3c21" next 120

Query "O=S(=O)(Nc1ccc(Cl)cc1Cl)c1ccc(-c2cnc(C3CC3)o2)cc1" next 8.88

Query C=C1CC2(OC1=O)C(=O)N(CCCCCCCCCCCCN1C(=O)C3(CC(=C)C(=O)O3)c3ccccc31)c1ccccc12 (stereo unspecified) next 98.7

Query O=[N+]([O-])c1cccc(C2CC(c3ccccc3)=Nc3ccccc3S2)c1 (stereo unspecified) next 89.6

Query "COc1nc2c(cc1S(=O)(=O)c1ccccc1)CCc1c-2cnn1-c1ccc(Cl)cc1" next 110

Query CC(=O)OCC1OC(OC2=C(CC=C(Cl)Cl)C(=O)c3ccccc3C2=O)C(OC(C)=O)C(OC(C)=O)C1OC(C)=O (stereo unspecified) next 104

Query "COc1ccc(/C=C2\N=C3Sc4cc(Cl)ccc4C(=O)N3C2=O)cc1" next 110

====

- System: HS 578T breast
- experimental_details: NCI-60 one-dose screen, 48 h (100 = growth as untreated, 0 = no growth, -100 = all killed)
- measurement_context: 10 µM unless noted
Compounds without any hit were thinned out: in the full panel of roughly 83,000, 20% have a hit.
reported_endpoint: growth (%)
Number only, in %; omit the unit.

Example results:
> print(dat)
                                   compound  recorded.measurement
1            CCOC(=O)C(=Cc1ccccc1F)C(=O)OCC                   104
2                  Nc1cc2nc3ccccc3sc-2cc1=O                  85.1
3  CC(C)(C)n1cc(-c2ccnc(NCCNS(=O)(=O)c3ccccc3)c2)c(-c2cccc(O)c2)n1                  62.4
4                Cl/C(=N\Nc1ccccc1)c1ccccc1                   108
5  COc1ccc(C(=O)c2sc3nc4c(c(C(F)(F)F)c3c2N)CN(C(C)=O)CC4)cc1OC                  81.6

Could you now look at the following compound, please?
Param readout= growth; system= HS 578T breast; entry= CS(CCCCN=C=S)=NC(=O)c1c(F)c(F)c(F)c(F)c1F (stereo unspecified) ; returns value. 90.8

====

- Test system: NCI-H226 lung
- experimental_details: NCI-60 one-dose screen, 48 h (100 = growth as untreated, 0 = no growth, -100 = all killed)
- measurement_context: 10 µM unless noted
This is part of a sample that, as a whole, favours compounds with a hit. Of some 83,000 tested, about 20% had one in any assay.
Friendly reminder: growth below 60% is Satisfied, at or above is Not satisfied.

Worked set:
> print(dat)
                                   molecule  assigned.label
1       COc1ccc(/C=C2\N=C3SC=C(N)N3C2=O)cc1       Satisfied
2  CCN(CC)CCCCNc1ccc(NCCCCN(CC)CC)c2c1C(=O)c1ccccc1C2=O   Not satisfied
3  ClC1=C2NC=NC2n2c(nnc2-c2ccc(Cl)cc2)N1 (stereo unspecified)   Not satisfied

Now take the following molecule into account.
Could you please tell me whether growth recorded for "CN1CCN(Cc2ccc(NC(=O)c3[nH]ncc3Nc3ncnc4c3CCC4)cc2)CC1" is less than 60%? Satisfied
